B1: glmS ribozyme (parent)
chain: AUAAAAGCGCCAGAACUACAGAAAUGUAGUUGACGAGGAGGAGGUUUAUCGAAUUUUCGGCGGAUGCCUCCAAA

Variants of: B1
protocol: kcat; higher = faster cleavage; RNA array
experimental context: with glucosamine-6-phosphate
Variants at the floor of the assay were thinned out.
property: log10 kcat (log10 of the value in s⁻¹)
Would you kindly interpret these values as log10 of kcat expressed in s⁻¹?

I have this variant here, AUAAAAGCGCCAGAACUACAGAAAUGUAGUUGACGAGGAGGAGGUUUAUCGAACUUUCGGCGGAUGCCUCAAAA [U54C C71A] , and I need its recorded log10 kcat. -2.42

I have this variant here, AUAAAAGCGCCAGAACUACAGAAAUGUAGUUGACGAGGUGGAGGUUUAUCGAAUUUUCGGCGGAUGCCUCUAAA [A39U C71U] , and I need its recorded log10 kcat. -1.77

I have this variant here, AUAAAAGUGCCAGAACUACAGAAAUGUAGUUGACGAGGAGGAGGUUUAUGGAAUUUUCGGCGGAUGCCUCCAAA [C8U C50G] , and I need its recorded log10 kcat. -3.68

I have this variant here, AUAAAAGCGCCAGAAGUACAGAAAUGUAGUUGACGAGGAGGAGGUUCAUCGAAUUUUCGGCGGAUGCCUCCAAA [C16G U47C] , and I need its recorded log10 kcat. -3.57

I have this variant here, AUAAAAGCGCCAGAACUACAGAAAUGUAGUUGACGAGGAGGAGAUUUAUCGAAUUUUCGGCGGAUACCUCCAAA [G44A G66A] , and I need its recorded log10 kcat. -3.17

I have this variant here, AUAAAAGCGCCAGAACUACAGAAAUGUAGUUGACGAGGAGGAGGUUUAUCGAAUUUUCGGCGGAUGCUUCCAAA [C68U] , and I need its recorded log10 kcat. -2.10

I have this variant here, AUAAAAGCGCCAUAACUACAGAAAUGUAGUUGACGAGGAGGGGGUUUAUCGAAUUUUCGGCGGAUGCCUCCAAA [G13U A42G] , and I need its recorded log10 kcat. -2.86

I have this variant here, AUAAAAGCGCCGGAACUACAGAAAUGUAGUUGACGAGGAGGAGGUUUAUCGAAUUUUCGGCGGAUGCGUCCAAA [A12G C68G] , and I need its recorded log10 kcat. -4.50

I have this variant here, AUAAAAGCGCCUGAACUACAGAAAUGUAGUUGACGAGGAAGAGGUUUAUCGAAUUUUCGGCGGAUGCCUCCAAA [A12U G40A] , and I need its recorded log10 kcat. -1.88

I have this variant here, AUAAAAGCGCCAGAACUACAGAAAUGUAGUUGACGAGGAGGAGGUUUAUCGAAUUUUCGGCGGAUGCCGCGAAA [U69G C71G] , and I need its recorded log10 kcat. -4.27

I have this variant here, AUAAAAGCGCCAGAUCUACAGAAAUGUAGUUGACGAGGAGGAGGUUUAUCGAAUUUUCGGCGGAUGCCUCGAAA [A15U C71G] , and I need its recorded log10 kcat. -3.48

I have this variant here, AUAAAAGCGCCACAACUACAGAAAUGUAAUUGACGAGGAGGAGGUUUAUCGAAUUUUCGGCGGAUGCCUCCAAA [G13C G29A] , and I need its recorded log10 kcat. -3.87

I have this variant here, AUAAAAGCGCCAGAACUACAGAAAUGUAGUUGACGAGGAGGAGGUUUAUCGAAUUUUCGGCGGGUGCCUGCAAA [A64G C70G] , and I need its recorded log10 kcat. -4.26

I have this variant here, AUAAAAGCGCCAGAACUACAGAAAUGUAGUUGACGAGGAGGAGCUUUAUCGAAUUAUCGGCGGAUGCCUCCAAA [G44C U56A] , and I need its recorded log10 kcat. -4.12

I have this variant here, AUAAAAGCGCCAGAACUACAGAAAUGUAGUCGACGAGGAGGAGGUUUAUCGAAAUUUCGGCGGAUGCCUCCAAA [U31C U54A] , and I need its recorded log10 kcat. -2.16

I have this variant here, AUAAAAGCGCCAGAAUUACAGAAAUGUAGUUGACGAGGAGGAGGUUUAUCGAAUUUUCGGCGUAUGCCUCCAAA [C16U G63U] , and I need its recorded log10 kcat. -4.90

I have this variant here, AUAAAAGCGCCAUAACUACAGAAAUGUAGUUGACGAGGAGGAGGUUUAUCGGAUUUUCGGCGGAUGCCUCCAAA [G13U A52G] , and I need its recorded log10 kcat. -4.15

I have this variant here, AUAAAAGCUCCAGAACUACAGAAAUGUAGUUGACGAGGAGGAGGUUUAUCGAAUUUUCGGAGGAUGCCUCCAAA [G9U C61A] , and I need its recorded log10 kcat. -2.86

I have this variant here, AUAAAAGCGCUAGAACUACAGAAAUGUAGUUGACGAGGAGGAGGUUUAUCGAAUUCUCGGCGGAUGCCUCCAAA [C11U U56C] , and I need its recorded log10 kcat. -3.61

I have this variant here, AUAAAAGCGCCAUAACUACAGAAAUGUAGUUGACGAGGAGAAGGUUUAUCGAAUUUUCGGCGGAUGCCUCCAAA [G13U G41A] , and I need its recorded log10 kcat. -4.29

I have this variant here, AUAAAAGCGCCAGAACUACAGAAAUGUAGUUAACGAGGAGGAGGUUUAUCGAAUUUUCGGCGGAUACCUCCAAA [G32A G66A] , and I need its recorded log10 kcat. -2.51

I have this variant here, AUAAAAGCGCCAGAAGUACAGAAAUGUAGUUGACGAGGAGGAGGUUUAUCGAAUUUACGGCGGAUGCUUCCAAA [C16G U57A C68U] , and I need its recorded log10 kcat. -4.38

I have this variant here, AUAAAUGCGCCAGAGCUACAGAAAUGUAGCUGACGAGGAGGAGGUUUAUCGAAUUUUCGGCGGAUGCCUCCAAA [A6U A15G U30C] , and I need its recorded log10 kcat. -3.46

I have this variant here, AUAAAAGCGCCAGAACUACAGAAAUGUAGGUGACGAGGAGGAGGUUUAUCGAAUUUUUGGCGGAUGCCUCCAAA [U30G C58U] , and I need its recorded log10 kcat. -4.26

I have this variant here, AUAAAAGCGCCAGAACUACAGAAAUGUAAUUGACGAGGAGCAGGUUUAUCGAAUUUUCGGCGGAUGCCUCCAAA [G29A G41C] , and I need its recorded log10 kcat. -4.50

I have this variant here, AUAAAAGCGCCAGAACUACAGAAAUGUAGUUGACGAGGUGCAGGUUUAUCGAAUUUUCGGCGGAUGCCUCCAAA [A39U G41C] , and I need its recorded log10 kcat. -4.67

I have this variant here, AUAAAAGCGCCAGAACUACAGAAAUGUAGUUGACGAGGAGGAGGUGUAUCGAAUUUUCGGCGGAUGCGUCCAAA [U46G C68G] , and I need its recorded log10 kcat. -3.99

I have this variant here, AUAAAAGCGCGAGAACUACAGAAAUGUAGUUAACGAGGAGGAGGUUUAUCGAAUUUUCGGCGGAUGCCGCCAAA [C11G G32A U69G] , and I need its recorded log10 kcat. -4.51

I have this variant here, AUAAACGCGCCAGAACUACAGAAAUGUAGUUGACGAGGAGGAGGUUUAUCGAAUUUUCGGCGGAUGCCUACAAA [A6C C70A] , and I need its recorded log10 kcat. -4.86

I have this variant here, AUAAAAGCGCCAGAACUACAGAAAUGUAGUUGACGAGGAGUAGGUUUAUCGAAUUUUCGGCGGAUGCCUCGAAA [G41U C71G] , and I need its recorded log10 kcat. -3.92

I have this variant here, AUAAAAGCGCCAGAAGUACAGAAAUGUAGUUGACGAGGAGGAGGUUUAUCGAAUUUUCGGCGGAUGCCUCAAAA [C16G C71A] , and I need its recorded log10 kcat. -3.19

I have this variant here, AUAAAAGCGCCAGAACUACAGAAAUGUAGUUGACGAGGAGGAGGAUUAUCGGAUUUUCGGCGGAUGCCUCCAAA [U45A A52G] , and I need its recorded log10 kcat. -2.49

I have this variant here, AUAAAAGCGCCAGUACUACAGAAAUGUAGUUGACGAGGAGGAGGUUUAUUGAAUUUUCGGCGGAUGCAUCCAAA [A14U C50U C68A] , and I need its recorded log10 kcat. -4.43

I have this variant here, AUAAAAGCGCUAGAACUACAGAAAUGUAGUUGACGAGGAUGAGGUUUAUCGAAUUUUCGGCGGAUGCCUUCAAA [C11U G40U C70U] , and I need its recorded log10 kcat. -3.97

I have this variant here, AUAAAAGCGCCAGAACUACAGAAAUGUAGUUGACGAGGAUGAGGUUAAUCGAAUUUUCGGCGGAUGCCUCCAAA [G40U U47A] , and I need its recorded log10 kcat. -2.82

I have this variant here, AUAAAAGCGCCAUAAUUACAGAAAUGUAGUUGACGAGGAGGAGGUUUAUCGAAUUUUCGGCGGAUGCCUCCAAA [G13U C16U] , and I need its recorded log10 kcat. -2.54

I have this variant here, AUAAAAGCGCCAGGACUACAGAAAUGUAGUUGACGAGGAGGAGGUGUAUCGAAUUUUCGGCGGAUGCCUCCAAA [A14G U46G] , and I need its recorded log10 kcat. -1.94

I have this variant here, AUAAAAGCGCCUGAACUACAGAAAUGUAGUUGACGAGGAUGAGGGUUAUCGAAUUUUCGGCGGAUGCCUCCAAA [A12U G40U U45G] , and I need its recorded log10 kcat. -2.76
